System: CP211
Assay: qHTS profiling for inhibitors of Plasmodium falciparum proliferation (AID 504749); note: nearly all actives have a fitted effect of over 60% in size; note: potency is the fitted concentration of half-maximal effect
Conditions: P. falciparum in erythrocytes, SYBR Green DNA, 72 h; series mostly up to 28.7 µM
Results filed as inconclusive are left out. The source made the active and inactive calls. Calls come from the whole dose curve; as a rule, active = well fitted inhibition curve with a large enough effect; inconclusive = small, poorly fitted or top-dose-only effect; inactive = flat fitted curve, though single readings scatter.
Readout Kind: Potency

[[record]]
molecule = "CCOc1ccc(NC(=S)Nc2ccc(OCC)cc2)cc1"
assay_value = "inactive"

[[record]]
molecule = "C[Se]CC[C@H](N)C(=O)O"
assay_value = "inactive"

[[record]]
molecule = "CCC(O)c1ccccc1 (stereo not given)"
assay_value = "inactive"

[[record]]
molecule = "CCCCCCCCCCCC(=O)OCC(O)CO (stereo not given)"
assay_value = "inactive"


Now take the following molecule into account.
Any idea what its Potency is? The molecule is `C=CC[C@@H]1/C=C(\C)C[C@H](C)C[C@H](OC)[C@H]2O[C@@](O)(C(=O)C(=O)N3CCCC[C@H]3C(=O)O[C@H](/C(C)=C/[C@@H]3CC[C@@H](O)[C@H](OC)C3)[C@H](C)[C@@H](O)CC1=O)[C@H](C)C[C@@H]2OC`
4.78 µM (active)

###

Tested on: CP329
Assay: qHTS profiling for inhibitors of Plasmodium falciparum proliferation (AID 504749); note: nearly all actives have a fitted effect of over 60% in size
Conditions: P. falciparum in erythrocytes, SYBR Green DNA, 72 h; series mostly up to 28.7 µM
Records with an inconclusive call do not appear. The source made the active and inactive calls. Calls follow the shape of the dose curve; as a rule, active = well fitted inhibition curve with a large enough effect; inconclusive = small, poorly fitted or top-dose-only effect; inactive = flat fitted curve, though single readings scatter.
Readout Kind: outcome

These recorded examples may help you get a feel for the data.
[[record]]
compound = "Nc1nc(=O)n([C@@H]2CS[C@H](CO)O2)cc1F"
system = "CP329"
assay_value = "inactive"

[[record]]
compound = "CC(=O)N=c1sc(S(N)(=O)=O)nn1C"
system = "CP329"
assay_value = "inactive"

[[record]]
compound = "OCl"
system = "CP329"
assay_value = "inactive"

[[record]]
compound = "O=C1c2ccccc2CN2C(=O)c3ccccc3CN12"
system = "CP329"
assay_value = "inactive"


For the compound shown here, CC(C)c1nc(N(C)S(C)(=O)=O)nc(-c2ccc(F)cc2)c1/C=C/C(O)CC(O)CC(=O)O (centres undefined) , give the reported outcome.
inactive

# get_value(readout='outcome', item= `Cc1cc(=O)c(C(=O)N[C@@H](C(=O)N[C@@H]2C(=O)N3C(C(=O)O)=C(CSc4nnnn4C)CS[C@H]23)c2ccc(O)cc2)c[nH]1` )
inactive

For the compound shown here, `O=C(O)CCC(=O)c1ccc(-c2ccccc2)cc1` , give the reported outcome.
inactive

###

Entries and their measured ratio activity, negative = inhibition follow.
Test: S16 Schwann cell PMP22 intronic element beta-lactamase assay (AID 624044);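 note: 0% = DMSO and -100% = potassium clavulanate positive control; nearly all actives have a fitted effect of over 15% in size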
Details: S16 rat Schwann cells, PMP22 element beta-lactamase FRET, 24 h; at 38.3 µM (top of the series) unless noted
Inconclusive results are not listed. Activity calls are given as the source filed them. Calls come from the whole dose curve.

[[record]]
compound_string = "CC[C@H]1OC(=O)[C@H](C)[C@@H](O[C@H]2C[C@@](C)(OC)[C@@H](O)[C@H](C)O2)[C@H](C)[C@@H](O[C@@H]2O[C@H](C)C[C@H](N(C)C)[C@H]2O)[C@](C)(O)C[C@@H](C)CN(C)[C@H](C)[C@@H](O)[C@]1(C)O"
readout_kind = "ratio activity, negative = inhibition"
assay_value = "-5.31% (inactive)"

[[record]]
compound_string = "C=CC(=O)O"
readout_kind = "ratio activity, negative = inhibition"
assay_value = "-7.38% (inactive)"


Value lookup for ratio activity, negative = inhibition; key = `CN1CCc2c(c3ccccc3n2Cc2ccccc2)C1`
-4.6% [at 17.1 µM] (inactive)

Quick one: ratio activity, negative = inhibition for `CO/N=C(/C(=O)N[C@@H]1C(=O)N2C(C(=O)O)=C(COC(N)=O)CS[C@H]12)c1ccco1` ?
0.236% (inactive)

These entries and their values trace back to PubChem BioAssay (NCATS).
